Experiment: recombinant barcode read abundance after kanamycin selection (control-corrected) (log10(CPM+1)); higher = more efficient recombination; sequences stand for … in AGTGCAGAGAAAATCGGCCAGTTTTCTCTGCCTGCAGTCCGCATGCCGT…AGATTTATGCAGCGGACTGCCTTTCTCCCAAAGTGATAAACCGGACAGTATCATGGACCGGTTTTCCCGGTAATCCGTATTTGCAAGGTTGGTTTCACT; site = the 11-nt target;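 note: IS621 recombinase and bridge RNA in Escherichia coli cells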
readout name: recombinant barcode read abundance (log10)

macromolecule sequence	observed value
GCTTTACCTTGGGTTCTAACCTGTTGCCT (site TCTTTACCTAG)	0.0534
TAGAACTCTTGGGTTCTAACCTGTTGCGT (site TAGAACTCTAC)	1.07
CTAAATACTTGGGTTCTAACCTGTTGCTA (site CTAAATACTTA)	0.126
GCTTGTTCTTGGGTTCTAACCTGTTGCCT (site CCTTGTTCTAG)	0.501
TACTCCGCTTGGGTTCTAACCTGTTGCCT (site GACTCCGCTAG)	0.031
GCCATTACTTGGGTTCTAACCTGTTGCCT (site GCCATCACTAG)	0.0409
